The measured values listed here are drawn from patent US6410775.

# System tested: ACA-6501 aPL antibody
# Procedure text: competitive ELISA I50; antibody not given, ACA-6501 serum on CL/β2-GPI assumed (Ex. 4B)
Square brackets hold non-standard residues; d marks the D form. Ends that are not written are not given here.
We label by threshold. Values of IC50 strictly beneath 200 µg/mL are condition met. Values of 200 µg/mL and up are condition not met.

Consider the worked cases shown below.
CLGVLGKLX (homocysteine (Hc) at position 9; cyclic thioether) [CHTE, LJP 702 (cyclic thioether analog of 3G3, C-LGVLGKL-Hc)] : condition met
CLGVL[dA]KLC (not fully specified (bridges); cysteine pairing not given here) [3G3 D amino acids 22: CLGVL-dA-KLC] : condition met
CLGVLPKLC [3G3 conformational scan 15 (Pro scan): …] : condition not met

Problem: API: query returns whether the binder falls strictly under 200 µg/mL in IC50. Query: CVGVLGKLC [3G3 branched aliphatic 2: …]
Solution: condition met

Problem: Answer whether the binder PCLGVLGKLCPG [3G3 truncation 3: …] has IC50 strictly less than 200 µg/mL
Solution: condition not met

Problem: Report whether reported IC50 is lower than 200 µg/mL (strictly) for CLGV[dL]GKLC (not fully specified (bridges); cysteine pairing not given here) [3G3 D amino acids 4: CLGV-dL-GKLC]
Solution: condition not met
